Target: T1, delNT PTHR1 (human, UniProt Q03431 27-593)
T1 sequence (looked up): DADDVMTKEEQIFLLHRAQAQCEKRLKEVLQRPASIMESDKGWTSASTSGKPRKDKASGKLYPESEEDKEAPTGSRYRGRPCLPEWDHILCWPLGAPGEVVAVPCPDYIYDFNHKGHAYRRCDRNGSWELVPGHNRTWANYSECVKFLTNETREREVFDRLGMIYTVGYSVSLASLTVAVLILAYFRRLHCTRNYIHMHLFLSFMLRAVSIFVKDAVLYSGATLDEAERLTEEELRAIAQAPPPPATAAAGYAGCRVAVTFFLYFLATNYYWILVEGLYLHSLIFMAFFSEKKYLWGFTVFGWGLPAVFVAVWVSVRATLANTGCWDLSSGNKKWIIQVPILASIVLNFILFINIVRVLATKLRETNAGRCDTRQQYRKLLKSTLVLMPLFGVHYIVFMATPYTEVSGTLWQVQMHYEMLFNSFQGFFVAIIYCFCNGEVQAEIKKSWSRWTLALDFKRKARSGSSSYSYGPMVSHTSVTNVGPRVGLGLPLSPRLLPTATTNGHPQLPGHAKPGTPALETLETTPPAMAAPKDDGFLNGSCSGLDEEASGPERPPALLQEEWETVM
Test: cell-based or functional assay
Non-standard residues stand in square brackets, D forms with d. No end group written: not given here. ACPC = 2-aminocyclopentane carboxylic acid; β3hE = N[C@@H](CCC(=O)O)CC(=O)O; β3hQ = NC(=O)CC[C@H](N)CC(=O)O; β3hL = CC(C)C[C@H](N)CC(=O)O; β3hS = N[C@@H](CO)CC(=O)O
Kindly supply the reported cAMP EC50 values for the records listed here.
Answer in µM, number only, no unit symbol.

Prompt: // query cAMP EC50 value for entry SVSEI[ACPC]LMHNLGKHLNSMERVEWLRKKLQDVHNF-NH2 [ACPC(6) PTH(1-34)]
Completion: 22

Prompt: Fill in the blank: the reported cAMP EC50 of SV[β3hS]EIQLMHNLGKHLNSMERVEWLRKKLQDVHNF-NH2 [β3Ser(3) PTH(1-34)] is ____.
Completion: 340

Prompt: # input binder: SVSEI[β3hQ]LMHNLGKHLNSMERVEWLRKKLQDVHNF-NH2 [β3Gln(6) PTH(1-34)] ; wanted: its cAMP EC50
Completion: 6.7

Prompt: Quick one: cAMP EC50 of SVS[ACPC]IQLMHNLGKHLNSMERVEWLRKKLQDVHNF-NH2 [ACPC(4) PTH(1-34)] ?
Completion: 32

Prompt: Reported cAMP EC50, binder SVSEIQ[β3hL]MHNLGKHLNSMERVEWLRKKLQDVHNF-NH2 [β3Leu(7) PTH(1-34)] : ____
Completion: 67

Prompt: Entry under review: SV[ACPC]EIQLMHNLGKHLNSMERVEWLRKKLQDVHNF-NH2 [ACPC(3) PTH(1-34)] . Reported cAMP EC50?
Completion: 7.8

Prompt: // lookup cAMP EC50 for SVS[β3hE]IQLMHNLGKHLNSMERVEWLRKKLQDVHNF-NH2 [β3Glu(4) PTH(1-34)]
Completion: 15

Prompt: Which cAMP EC50 is reported for this binder? SVSEIQL[ACPC]HNLGKHLNSMERVEWLRKKLQDVHNF-NH2 [ACPC(8) PTH(1-34)]
Completion: 29

Values were extracted from patent US20140378382A1.
